The values you see were collected from paper PMC12416549.

- target_under_test: T1, TNFR1 (Homo sapiens, UniProt P19438)
- T1 chain: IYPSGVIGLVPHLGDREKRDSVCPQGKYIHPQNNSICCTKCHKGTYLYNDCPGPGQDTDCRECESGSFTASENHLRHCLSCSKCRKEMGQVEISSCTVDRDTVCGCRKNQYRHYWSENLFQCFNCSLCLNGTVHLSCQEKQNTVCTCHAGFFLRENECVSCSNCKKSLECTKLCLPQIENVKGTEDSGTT
- procedure_summary: yeast display SC50
quantity_name: apparent Kd (screen) (nM)

Example entries begin here.
>>> recorded_result("Y37N (designed binder) MTLQELLREEALRRAEAEAFRYALELLAEKFPEQKENLLDLAEEIESQIRSLSGVDVEDVRKFLDKEWAWVKELLAEHPAELAEVEAARAARLAELRAEVEAKVAA")
0.869
>>> recorded_result("K72T (designed binder) MTLQELLREEALRRAEAEAFRYALELLAEKFPEQKEYLLDLAEEIESQIRSLSGVDVEDVRKFLDKEWAWVTELLAEHPAELAEVEAARAARLAELRAEVEAKVAA")
0.718

I: R61P (designed binder) MTLQELLREEALRRAEAEAFRYALELLAEKFPEQKEYLLDLAEEIESQIRSLSGVDVEDVPKFLDKEWAWVKELLAEHPAELAEVEAARAARLAELRAEVEAKVAA
II: I49T (designed binder) MTLQELLREEALRRAEAEAFRYALELLAEKFPEQKEYLLDLAEEIESQTRSLSGVDVEDVRKFLDKEWAWVKELLAEHPAELAEVEAARAARLAELRAEVEAKVAA
Which item exceeds the other in apparent Kd (screen), I or II ? I would appreciate it if you answered with the label of your choice. I
(I: 26.9 nM, II: 0.539 nM)
